- Tested on: 997537-175-T-J1-PDC complex spheroid viability
- procedure-text: Anticancer human tumor 997537-175-T-J1-PDC patient-derived colon adenocarcinoma cell line growth inhibition [GQUAD]
- measurement-setup: second compound 0.1 µM; first compound 0.00316 µM; stronger effect = lower value

[
  {
    "compound": "Cc1[nH]c2ccccc2c1CCNCc1ccc(/C=C/C(=O)NO)cc1 + Cc1cnc(CNC(=O)c2c(=O)c3ccc(N4CCCN(C)CC4)nc3n3c2sc2ccccc23)cn1",
    "viability, T/C": "94.9%"
  },
  {
    "compound": "CCc1c2c(nc3ccc(O)cc13)-c1cc3c(c(=O)n1C2)COC(=O)[C@]3(O)CC + CN(C)c1ccc(Nc2c3ccc(NC(=O)CCN4CCCC4)cc3nc3cc(NC(=O)CCN4CCCC4)ccc23)cc1",
    "viability, T/C": "83.4%"
  },
  {
    "compound": "CCc1c2c(nc3ccc(O)cc13)-c1cc3c(c(=O)n1C2)COC(=O)[C@]3(O)CC + Cc1cnc(CNC(=O)c2c(=O)c3ccc(N4CCCN(C)CC4)nc3n3c2sc2ccccc23)cn1",
    "viability, T/C": "85.8%"
  }
]

----------
- Tested on: 997537-175-T-J1-PDC complex spheroid viability
- procedure-text: Anticancer human tumor 997537-175-T-J1-PDC cell line growth inhibition [GQUAD];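 further: spheroids exposed to the agents for 7 days; 100% = DMSO vehicle control viability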
- measurement-setup: second compound 1 µM; first compound 0.316 µM; stronger effect = lower value
Lab note: cut-off is 80%. Strictly less in viability, T/C is met. Exactly 80% or more is not met.

[
  {
    "molecule": "C#Cc1c(F)ccc2cc(O)cc(-c3ncc4c(N5CC6CCC(C5)N6)nc(OCC56CCCN5CC(F)C6)nc4c3F)c12 (stereo unspecified) + CN(C)c1ccc(Nc2c3ccc(NC(=O)CCN4CCCC4)cc3nc3cc(NC(=O)CCN4CCCC4)ccc23)cc1",
    "group-label": "not met"
  },
  {
    "molecule": "COc1cccc2c1C(=O)c1c(O)c3c(c(O)c1C2=O)CC(O)(C(=O)CO)CC3OC1CC(N)C(O)C(C)O1 (stereo unspecified) + Cc1[nH]c2ccc(F)cc2c1-c1nc2c3cccnc3c3ncccc3c2[nH]1",
    "group-label": "not met"
  },
  {
    "molecule": "C=CC(=O)N1CCN(c2nc(=O)n(-c3c(C)ccnc3C(C)C)c3nc(-c4c(O)cccc4F)c(F)cc23)C(C)C1 (stereo unspecified) + CN(C)c1ccc(Nc2c3ccc(NC(=O)CCN4CCCC4)cc3nc3cc(NC(=O)CCN4CCCC4)ccc23)cc1",
    "group-label": "not met"
  },
  {
    "molecule": "COc1ccc([C@@H](O)c2cc(-c3ncnc4cc(N5CCOCC5)ccc34)c(F)cc2Cl)nn1 + CN(C)c1ccc(Nc2c3ccc(NC(=O)CCN4CCCC4)cc3nc3cc(NC(=O)CCN4CCCC4)ccc23)cc1",
    "group-label": "not met"
  },
  {
    "molecule": "O=C(NO)c1cnc(N2CCN(S(=O)(=O)c3ccc4ccccc4c3)CC2)nc1 + CN(C)c1ccc(Nc2c3ccc(NC(=O)CCN4CCCC4)cc3nc3cc(NC(=O)CCN4CCCC4)ccc23)cc1",
    "group-label": "not met"
  },
  {
    "molecule": "COc1cccc2c1C(=O)c1c(O)c3c(c(O)c1C2=O)CC(O)(C(=O)CO)CC3OC1CC(N)C(O)C(C)O1 (stereo unspecified) + Cc1cnc(CNC(=O)c2c(=O)c3ccc(N4CCCN(C)CC4)nc3n3c2sc2ccccc23)cn1",
    "group-label": "not met"
  },
  {
    "molecule": "CC1COCCN1c1cc(C2(O)CC3CCC(C2)O3)c2cnn(-c3ccn[nH]3)c2n1 (stereo unspecified) + Cc1[nH]c2ccc(F)cc2c1-c1nc2c3cccnc3c3ncccc3c2[nH]1",
    "group-label": "met"
  },
  {
    "molecule": "O=c1[nH]cc(F)c(=O)[nH]1 + Cc1[nH]c2ccc(F)cc2c1-c1nc2c3cccnc3c3ncccc3c2[nH]1",
    "group-label": "not met"
  },
  {
    "molecule": "O=C(c1cc(Cc2n[nH]c(=O)c3ccccc23)ccc1F)N1CCN(C(=O)C2CC2)CC1 + Cc1[nH]c2ccc(F)cc2c1-c1nc2c3cccnc3c3ncccc3c2[nH]1",
    "group-label": "met"
  }
]

----------
- Tested on: 997537-175-T-J1-PDC complex spheroid viability
- procedure-text: Anticancer human tumor 997537-175-T-J1-PDC cell line growth inhibition [GQUAD];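 further: spheroids exposed to the agents for 7 days; 100% = DMSO vehicle control viability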
- measurement-setup: second compound 0.0316 µM; first compound 0.1 µM; stronger effect = lower value

[
  {
    "compound": "Nc1ccn(C2OC(CO)C(O)C2(F)F)c(=O)n1 (stereo unspecified) + Cc1[nH]c2ccc(F)cc2c1-c1nc2c3cccnc3c3ncccc3c2[nH]1",
    "reading-unit": "%",
    "viability, T/C": 82.5
  },
  {
    "compound": "O=c1[nH]cc(F)c(=O)[nH]1 + Cc1[nH]c2ccc(F)cc2c1-c1nc2c3cccnc3c3ncccc3c2[nH]1",
    "reading-unit": "%",
    "viability, T/C": 88.1
  },
  {
    "compound": "CC(C)(O)C1CCC(Nc2ccc3ncc(-c4cccc(C(F)(F)F)c4)n3n2)CC1 (stereo unspecified) + Cc1[nH]c2ccc(F)cc2c1-c1nc2c3cccnc3c3ncccc3c2[nH]1",
    "reading-unit": "%",
    "viability, T/C": 107
  },
  {
    "compound": "COc1cc(C2c3cc4c(cc3C(OC3OC5COC(C)OC5C(O)C3O)C3COC(=O)C23)OCO4)cc(OC)c1O (stereo unspecified) + Cc1cnc(CNC(=O)c2c(=O)c3ccc(N4CCCN(C)CC4)nc3n3c2sc2ccccc23)cn1",
    "reading-unit": "%",
    "viability, T/C": 97.7
  },
  {
    "compound": "Cc1cccc(N(C)C(=O)C2C(O)CCN2c2nc(C)cc(C(F)(F)F)c2C#N)c1 (stereo unspecified) + CN(C)c1ccc(Nc2c3ccc(NC(=O)CCN4CCCC4)cc3nc3cc(NC(=O)CCN4CCCC4)ccc23)cc1",
    "reading-unit": "%",
    "viability, T/C": 101
  },
  {
    "compound": "COc1ccc([C@@H](O)c2cc(-c3ncnc4cc(N5CCOCC5)ccc34)c(F)cc2Cl)nn1 + Cc1cnc(CNC(=O)c2c(=O)c3ccc(N4CCCN(C)CC4)nc3n3c2sc2ccccc23)cn1",
    "reading-unit": "%",
    "viability, T/C": 93.6
  }
]

----------
- Test system: 997537-175-T-J1-PDC complex spheroid viability
- procedure-text: Anticancer human tumor 997537-175-T-J1-PDC cell line growth inhibition [GQUAD];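 further: spheroids exposed to the agents for 7 days; 100% = DMSO vehicle control viability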
- measurement-setup: second compound 1 µM; first compound 0.316 µM; stronger effect = lower value

[
  {
    "compound": "CC[C@@]1(O)C(=O)OCc2c1cc1n(c2=O)Cc2cc3c(CN(C)C)c(O)ccc3nc2-1 + Cc1[nH]c2ccc(F)cc2c1-c1nc2c3cccnc3c3ncccc3c2[nH]1",
    "viability, T/C": "62.6%"
  },
  {
    "compound": "CCCS(=O)(=O)Nc1ccc(F)c(C(=O)c2c[nH]c3ncc(-c4ccc(Cl)cc4)cc23)c1F + Cc1[nH]c2ccc(F)cc2c1-c1nc2c3cccnc3c3ncccc3c2[nH]1",
    "viability, T/C": "101%"
  },
  {
    "compound": "CC(=O)O[C@H]1C(=O)[C@@]2(C)[C@H]([C@H](OC(=O)c3ccccc3)[C@]3(O)C[C@H](OC(=O)[C@H](O)[C@@H](NC(=O)c4ccccc4)c4ccccc4)C(C)=C1C3(C)C)[C@]1(OC(C)=O)CO[C@@H]1C[C@@H]2O + Cc1[nH]c2ccc(F)cc2c1-c1nc2c3cccnc3c3ncccc3c2[nH]1",
    "viability, T/C": "96.2%"
  },
  {
    "compound": "CCCS(=O)(=O)Nc1ccc(F)c(C(=O)c2c[nH]c3ncc(-c4ccc(Cl)cc4)cc23)c1F + Cc1cnc(CNC(=O)c2c(=O)c3ccc(N4CCCN(C)CC4)nc3n3c2sc2ccccc23)cn1",
    "viability, T/C": "48.4%"
  },
  {
    "compound": "CC(C)(O)C1CCC(Nc2ccc3ncc(-c4cccc(C(F)(F)F)c4)n3n2)CC1 (stereo unspecified) + Cc1[nH]c2ccc(F)cc2c1-c1nc2c3cccnc3c3ncccc3c2[nH]1",
    "viability, T/C": "101%"
  },
  {
    "compound": "O=C(NO)c1cnc(N2CCN(S(=O)(=O)c3ccc4ccccc4c3)CC2)nc1 + Cc1[nH]c2ccc(F)cc2c1-c1nc2c3cccnc3c3ncccc3c2[nH]1",
    "viability, T/C": "37.6%"
  },
  {
    "compound": "CC[C@@]1(O)C(=O)OCc2c1cc1n(c2=O)Cc2cc3c(CN(C)C)c(O)ccc3nc2-1 + CN(C)c1ccc(Nc2c3ccc(NC(=O)CCN4CCCC4)cc3nc3cc(NC(=O)CCN4CCCC4)ccc23)cc1",
    "viability, T/C": "68.9%"
  },
  {
    "compound": "Nc1ccn(C2OC(CO)C(O)C2(F)F)c(=O)n1 (stereo unspecified) + CN(C)c1ccc(Nc2c3ccc(NC(=O)CCN4CCCC4)cc3nc3cc(NC(=O)CCN4CCCC4)ccc23)cc1",
    "viability, T/C": "79.9%"
  },
  {
    "compound": "CC1COCCN1c1cc(C2(O)CC3CCC(C2)O3)c2cnn(-c3ccn[nH]3)c2n1 (stereo unspecified) + Cc1cnc(CNC(=O)c2c(=O)c3ccc(N4CCCN(C)CC4)nc3n3c2sc2ccccc23)cn1",
    "viability, T/C": "38.4%"
  },
  {
    "compound": "Cc1cccc(N(C)C(=O)C2C(O)CCN2c2nc(C)cc(C(F)(F)F)c2C#N)c1 (stereo unspecified) + CN(C)c1ccc(Nc2c3ccc(NC(=O)CCN4CCCC4)cc3nc3cc(NC(=O)CCN4CCCC4)ccc23)cc1",
    "viability, T/C": "83.2%"
  },
  {
    "compound": "CCCS(=O)(=O)Nc1ccc(F)c(C(=O)c2c[nH]c3ncc(-c4ccc(Cl)cc4)cc23)c1F + CN(C)c1ccc(Nc2c3ccc(NC(=O)CCN4CCCC4)cc3nc3cc(NC(=O)CCN4CCCC4)ccc23)cc1",
    "viability, T/C": "81.7%"
  },
  {
    "compound": "COc1ccc([C@@H](O)c2cc(-c3ncnc4cc(N5CCOCC5)ccc34)c(F)cc2Cl)nn1 + Cc1[nH]c2ccc(F)cc2c1-c1nc2c3cccnc3c3ncccc3c2[nH]1",
    "viability, T/C": "95.4%"
  },
  {
    "compound": "Cc1cccc(N(C)C(=O)C2C(O)CCN2c2nc(C)cc(C(F)(F)F)c2C#N)c1 (stereo unspecified) + Cc1cnc(CNC(=O)c2c(=O)c3ccc(N4CCCN(C)CC4)nc3n3c2sc2ccccc23)cn1",
    "viability, T/C": "87.8%"
  },
  {
    "compound": "CC[C@@]1(O)C(=O)OCc2c1cc1n(c2=O)Cc2cc3c(CN(C)C)c(O)ccc3nc2-1 + Cc1cnc(CNC(=O)c2c(=O)c3ccc(N4CCCN(C)CC4)nc3n3c2sc2ccccc23)cn1",
    "viability, T/C": "59%"
  },
  {
    "compound": "O=c1[nH]cc(F)c(=O)[nH]1 + Cc1cnc(CNC(=O)c2c(=O)c3ccc(N4CCCN(C)CC4)nc3n3c2sc2ccccc23)cn1",
    "viability, T/C": "84.9%"
  },
  {
    "compound": "CCc1c2c(nc3ccc(O)cc13)-c1cc3c(c(=O)n1C2)COC(=O)[C@]3(O)CC + Cc1[nH]c2ccc(F)cc2c1-c1nc2c3cccnc3c3ncccc3c2[nH]1",
    "viability, T/C": "7.31%"
  },
  {
    "compound": "COc1ncnc(C2CC2)c1-c1ncc2cnn(Cc3ccc(-c4nc(C(F)(F)F)cn4C(C)C)cc3)c2n1 + Cc1[nH]c2ccc(F)cc2c1-c1nc2c3cccnc3c3ncccc3c2[nH]1",
    "viability, T/C": "101%"
  },
  {
    "compound": "C=CCn1c(=O)c2cnc(Nc3ccc(N4CCN(C)CC4)cc3)nc2n1-c1cccc(C(C)(C)O)n1 + Cc1[nH]c2ccc(F)cc2c1-c1nc2c3cccnc3c3ncccc3c2[nH]1",
    "viability, T/C": "86.4%"
  },
  {
    "compound": "CC1COCCN1c1cc(C2(S(C)(=N)=O)CC2)nc(-c2ccnc3[nH]ccc23)n1 (stereo unspecified) + CN(C)c1ccc(Nc2c3ccc(NC(=O)CCN4CCCC4)cc3nc3cc(NC(=O)CCN4CCCC4)ccc23)cc1",
    "viability, T/C": "87.8%"
  },
  {
    "compound": "CC1COCCN1c1cc(C2(O)CC3CCC(C2)O3)c2cnn(-c3ccn[nH]3)c2n1 (stereo unspecified) + CN(C)c1ccc(Nc2c3ccc(NC(=O)CCN4CCCC4)cc3nc3cc(NC(=O)CCN4CCCC4)ccc23)cc1",
    "viability, T/C": "44.8%"
  },
  {
    "compound": "COc1cc(C2c3cc4c(cc3C(OC3OC5COC(C)OC5C(O)C3O)C3COC(=O)C23)OCO4)cc(OC)c1O (stereo unspecified) + Cc1cnc(CNC(=O)c2c(=O)c3ccc(N4CCCN(C)CC4)nc3n3c2sc2ccccc23)cn1",
    "viability, T/C": "97.3%"
  }
]
